Test: Antiproliferative activity against human HEK293 cells assessed as reduction in cell viability incubated for 72 hrs by CelltiterGlo luminescent assay
Assay type: toxicity, cell-based
Measured IC50 at 72 h, listed per entry for reference.
RECORDED_METRIC: IC50 at 72 h (nM)

[
  {
    "COMPOUND": "CC[C@]1(O)C[C@H]2CN(CCc3c([nH]c4ccccc34)[C@@](C(=O)OC)(c3cc4c(cc3OC)N(C=O)[C@H]3[C@@](O)(C(=O)OC)[C@H](OC(C)=O)[C@]5(CC)C=CCN6CC[C@]43[C@@H]65)C2)C1 [VINCRISTINE]",
    "RECORDED_METRIC": "IC50 at 72 h",
    "VALUE_UNIT": "nM",
    "MEASURED": 25.8
  },
  {
    "COMPOUND": "CCN(c1ccc2c(ccn2C)c1)S(=O)(=O)c1cc(OC)c(OC)c(OC)c1",
    "RECORDED_METRIC": "IC50 at 72 h",
    "VALUE_UNIT": "nM",
    "MEASURED": 323
  },
  {
    "COMPOUND": "COc1cc(S(=O)(=O)N(CC#N)c2ccc3c(ccn3C)c2)cc(OC)c1OC",
    "RECORDED_METRIC": "IC50 at 72 h",
    "VALUE_UNIT": "nM",
    "MEASURED": 23.4
  },
  {
    "COMPOUND": "COc1cc(S(=O)(=O)N(CC#N)c2ccc3c(c2)c(C=O)cn3C)cc(OC)c1OC",
    "RECORDED_METRIC": "IC50 at 72 h",
    "VALUE_UNIT": "nM",
    "MEASURED": 70.9
  },
  {
    "COMPOUND": "CCC1=C[C@@H]2CN(C1)Cc1c([nH]c3ccccc13)[C@@](C(=O)OC)(c1cc3c(cc1OC)N(C)[C@H]1[C@@](O)(C(=O)OC)[C@H](OC(C)=O)[C@]4(CC)C=CCN5CC[C@]31[C@@H]54)C2 [VINORELBINE]",
    "RECORDED_METRIC": "IC50 at 72 h",
    "VALUE_UNIT": "nM",
    "MEASURED": 15.9
  },
  {
    "COMPOUND": "COc1cc(S(=O)(=O)Nc2ccc3c(c2)c(C(N)=O)cn3C)cc(OC)c1OC",
    "RECORDED_METRIC": "IC50 at 72 h",
    "VALUE_UNIT": "nM",
    "MEASURED": 492
  },
  {
    "COMPOUND": "COc1cc(S(=O)(=O)N(C)c2ccc3c(c2)c(C(N)=O)cn3C)cc(OC)c1OC",
    "RECORDED_METRIC": "IC50 at 72 h",
    "VALUE_UNIT": "nM",
    "MEASURED": 92.2
  },
  {
    "COMPOUND": "CC(=O)O[C@@]12CO[C@@H]1C[C@H](O)[C@@]1(C)C(=O)[C@H](O)C3=C(C)[C@@H](OC(=O)[C@H](O)[C@@H](NC(=O)OC(C)(C)C)c4ccccc4)C[C@@](O)([C@@H](OC(=O)c4ccccc4)[C@H]21)C3(C)C [DOCETAXEL ANHYDROUS]",
    "RECORDED_METRIC": "IC50 at 72 h",
    "VALUE_UNIT": "nM",
    "MEASURED": 7.5
  }
]

====

Test: Antiproliferative activity against human Hermes 3C cells assessed as reduction in cell viability incubated for 72 hrs by CelltiterGlo luminescent assay
Assay type: toxicity, cell-based
Classes (IC50 at 72 h): lower segment = under 40 nM, middle segment = from 40 nM up to 70 nM, upper segment = 70 nM and over

[
  {
    "COMPOUND": "CC[C@]1(O)C[C@H]2CN(CCc3c([nH]c4ccccc34)[C@@](C(=O)OC)(c3cc4c(cc3OC)N(C=O)[C@H]3[C@@](O)(C(=O)OC)[C@H](OC(C)=O)[C@]5(CC)C=CCN6CC[C@]43[C@@H]65)C2)C1 [VINCRISTINE]",
    "GROUP": "lower segment"
  },
  {
    "COMPOUND": "CCN(c1ccc2c(ccn2C)c1)S(=O)(=O)c1cc(OC)c(OC)c(OC)c1",
    "GROUP": "upper segment"
  },
  {
    "COMPOUND": "CC(=O)O[C@@]12CO[C@@H]1C[C@H](O)[C@@]1(C)C(=O)[C@H](O)C3=C(C)[C@@H](OC(=O)[C@H](O)[C@@H](NC(=O)OC(C)(C)C)c4ccccc4)C[C@@](O)([C@@H](OC(=O)c4ccccc4)[C@H]21)C3(C)C [DOCETAXEL ANHYDROUS]",
    "GROUP": "lower segment"
  },
  {
    "COMPOUND": "COc1cc(S(=O)(=O)N(CC#N)c2ccc3c(c2)c(C(N)=O)cn3C)cc(OC)c1OC",
    "GROUP": "upper segment"
  },
  {
    "COMPOUND": "CC(=O)O[C@H]1C(=O)[C@@]2(C)[C@H]([C@H](OC(=O)c3ccccc3)[C@]3(O)C[C@H](OC(=O)[C@H](O)[C@@H](NC(=O)c4ccccc4)c4ccccc4)C(C)=C1C3(C)C)[C@]1(OC(C)=O)CO[C@@H]1C[C@@H]2O [PACLITAXEL]",
    "GROUP": "lower segment"
  },
  {
    "COMPOUND": "COc1cc(S(=O)(=O)N(C)c2ccc3c(ccn3C)c2)cc(OC)c1OC",
    "GROUP": "middle segment"
  },
  {
    "COMPOUND": "CCC1=C[C@@H]2CN(C1)Cc1c([nH]c3ccccc13)[C@@](C(=O)OC)(c1cc3c(cc1OC)N(C)[C@H]1[C@@](O)(C(=O)OC)[C@H](OC(C)=O)[C@]4(CC)C=CCN5CC[C@]31[C@@H]54)C2 [VINORELBINE]",
    "GROUP": "lower segment"
  },
  {
    "COMPOUND": "COc1cc(S(=O)(=O)N(CC#N)c2ccc3c(c2)c(C=O)cn3C)cc(OC)c1OC",
    "GROUP": "upper segment"
  },
  {
    "COMPOUND": "COc1cc(S(=O)(=O)N(C)c2ccc3c(c2)c(C=O)cn3C)cc(OC)c1OC",
    "GROUP": "middle segment"
  },
  {
    "COMPOUND": "COc1cc(S(=O)(=O)Nc2ccc3c(ccn3C)c2)cc(OC)c1OC",
    "GROUP": "middle segment"
  },
  {
    "COMPOUND": "COc1cc(S(=O)(=O)Nc2ccc3c(c2)c(C#N)cn3C)cc(OC)c1OC",
    "GROUP": "upper segment"
  },
  {
    "COMPOUND": "COc1cc(S(=O)(=O)N(CC#N)c2ccc3c(ccn3C)c2)cc(OC)c1OC",
    "GROUP": "middle segment"
  },
  {
    "COMPOUND": "COc1cc(S(=O)(=O)N(C)c2ccc3c(c2)c(C(N)=O)cn3C)cc(OC)c1OC",
    "GROUP": "lower segment"
  },
  {
    "COMPOUND": "COc1cc(S(=O)(=O)Nc2ccc3c(c2)c(C(N)=O)cn3C)cc(OC)c1OC",
    "GROUP": "upper segment"
  },
  {
    "COMPOUND": "COc1cc(S(=O)(=O)N(C)c2ccc3c(c2)c(C#N)cn3C)cc(OC)c1OC",
    "GROUP": "middle segment"
  }
]

====

Measured pIC50, listed per entry for reference.
Tested on: HeLa
Assay: Antiproliferative activity against human HeLa cells assessed as inhibition of cell growth incubated for 72 hrs in absence of verapamil by MTT assay
Type: functional, cell-based
pIC50: −log10 of the molar value.

[
  {
    "SMILES_INPUT": "COc1cc(S(=O)(=O)N(CC#N)c2ccc3c(ccn3C)c2)cc(OC)c1OC",
    "pIC50": 7.65
  },
  {
    "SMILES_INPUT": "COc1cc(S(=O)(=O)N(CC#N)c2ccc3c(c2)c(C=O)cn3C)cc(OC)c1OC",
    "pIC50": 7.24
  },
  {
    "SMILES_INPUT": "COc1cc(S(=O)(=O)N(C)c2ccc3c(c2)c(C#N)cn3C)cc(OC)c1OC",
    "pIC50": 7.59
  },
  {
    "SMILES_INPUT": "COc1cc(S(=O)(=O)N(CC#N)c2ccc3c(c2)c(C#N)cn3C)cc(OC)c1OC",
    "pIC50": 7.46
  }
]
